Listed next: entries and their corresponding recombinant barcode read abundance (log10).
Experiment: recombinant barcode read abundance after kanamycin selection (control-corrected) (log10(CPM+1)); higher = more efficient recombination; sequences stand for … in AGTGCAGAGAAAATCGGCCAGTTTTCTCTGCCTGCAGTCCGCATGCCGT…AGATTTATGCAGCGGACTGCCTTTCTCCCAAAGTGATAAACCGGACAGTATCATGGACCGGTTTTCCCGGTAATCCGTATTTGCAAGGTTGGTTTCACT; site = the 11-nt target
Answer with the value's number alone.

Examples with answers:
> print(dat)
                           ordered.residues  assay.value
1  CACATATCTTGGGTTCTAACCTGTTGCAT (site CACATATCTAT)         1.49
2  GTTGCCACTTGGGTTCTAACCTGTTGCCT (site GTCGCCACTAG)       0.0124
3  CCTCAGGCTTGGGTTCTAACCTGTTGCCC (site CCTCAGGCTCG)       0.0734
4  TGGTGCGCTTGGGTTCTAACCTGTTGCCT (site TGGTTCGCTAG)       0.0427
5  AGGTCACCTTGGGTTCTAACCTGTTGCCT (site AGGTCACCTAG)         1.83

Look up and report measured recombinant barcode read abundance (log10) for this entry: TGTGGGTCTTGGGTTCTAACCTGTTGCCT (site TATGGGTCTAG) 0.0229

Look up and report measured recombinant barcode read abundance (log10) for this entry: AAGGGCCCTTGGGTTCTAACCTGTTGCCT (site CAGGGCCCTAG) 0.339

Look up and report measured recombinant barcode read abundance (log10) for this entry: CATGTACCTTGGGTTCTAACCTGTTGCCT (site AATGTACCTAG) 0.0837

Look up and report measured recombinant barcode read abundance (log10) for this entry: TAGTAGTCTTGGGTTCTAACCTGTTGCCT (site TAGTAGTCTAT) 0.108

Look up and report measured recombinant barcode read abundance (log10) for this entry: GAGATCCCTTGGGTTCTAACCTGTTGCCT (site GAGATCCCTAG) 2.03

----------
Experiment: recombinant UMI read abundance after kanamycin selection (control-corrected) (log10(CPM+1)); higher = more efficient recombination; extreme values may be limits of the assay; sequences stand for … in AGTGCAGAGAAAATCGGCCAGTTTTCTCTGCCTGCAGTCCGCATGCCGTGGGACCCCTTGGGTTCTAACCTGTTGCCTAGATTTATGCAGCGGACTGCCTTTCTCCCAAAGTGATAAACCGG…AGGTTGGTTTCACT; site = the 11-nt donor
MEASURE_NAME: recombinant UMI read abundance (log10)

Examples with answers:
> print(dat)
                           ordered.residues  assay.value
1  GGCCACACATGGACCGGTTTTCCCGGTAATCCGTATTTGTT (site GGCCACCCTAA)        0.035
2  TATTATGCATGGACCGGTTTTCCCGGTAATCCGTATTTGGA (site AATTATGCTTC)        0.364
3  CTAGCTGCATGGACCGGTTTTCCCGGTAATCCGTATTTGTG (site CTAGCTGCTCA)         1.75
4  CGGTTAGCATGGACCGGTTTTCCCGGTAATCCGTATTTGTG (site CAGTTAGCTCA)        0.694
5  TGCGAGGCATGGACCGGTTTTCCCGGTAATCCGTATTTGGT (site TGCGAGGCTAC)       0.0084

Look up and report measured recombinant UMI read abundance (log10) for this entry: CAATGCACATGGACCGGTTTTCCCGGTAATCCGTATTTGAA (site CAATGCTCTTT) 0.438

Look up and report measured recombinant UMI read abundance (log10) for this entry: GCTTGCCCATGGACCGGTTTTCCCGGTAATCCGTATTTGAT (site ACTTGCCCTAT) 0

Look up and report measured recombinant UMI read abundance (log10) for this entry: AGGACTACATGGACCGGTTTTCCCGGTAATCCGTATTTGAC (site AGGAGTACTGT) 0

Look up and report measured recombinant UMI read abundance (log10) for this entry: CGTGAACCATGGACCGGTTTTCCCGGTAATCCGTATTTGAT (site CGCGAACCTAT) 0
